These data points were gathered from patent US20220356230A1.

# targetSystem: SARS-CoV-2 RBD extracellular domain expressed with a C-terminal human IgG1 (SARS-COV-2 RBD-hFc) (SARS-CoV-2)
# conditionsUsed: remark: other sources report otherwise
measuredEndpoint: Kd

Sure, the documented Kd for mAb11006 (antibody, V domains shown) VH: EVQLVESGGGLVQPGGSLRLSCAASGFIVSRNYMSWVRQAPGKGLEWVSVIYSGGSTFYADSVKGRFTISRHNSKNTLYLQMNSLKAEDTAVYYCARELRGYFDYWGQGTLVTVSS VL: DIQLTQSPSFLSASVGDRVTITCWASQGISSYLAWYQQKPGKAPKLLIYAASTLQSGVPSRFSGSGSGTEFTLTISSLQPEDFATYYCQLLNSYPYTFGQGTKLEIK is < 0.0532 nM

Sure, the documented Kd for mAb11004 (antibody, V domains shown) VH: QVQLVESGGGVVQPGRSLRLSCVASGFTFSIYGMDWVRQAPGKGLEWVAVISYDGSNKYYADSVKGRFTISRDNSKNTLYLQMNSLRPEDTAVYYCAKDREAAADAFDIWGQGTMVTVSS VL: DIQMTQSPSSVSASVGDRVTITCRASQGISSWLAWYQQKPGKAPKLLIYAASSLHSGVPSRFSGSGSGTDFTLTISSLQPEDFATYYCQQANSFRLTFGGGTKVEIK is 0.191 nM

Sure, the documented Kd for mAb11008 (antibody, V domains shown) VH: EVQLVESGGGLVQPGGSLRLSCAASGFTVSSNYMTWVRQAPGKGLEWVSVIYSGGSTFYADSVKGRFTISRHNSENTLYLQMNSLRAEDTAVYYCARDLAAAGTDYWGQGALVTVSS VL: DIQLTQSPSFLSASVGDRVTITCWASQGISSYLAWYQQKPGKAPKLLIYAASTLQSGVPSRFSGSGSGTEFTLTISSLQPDDFATYYCQHLNSYLYTFGQGTKLEIK is 0.715 nM

Sure, the documented Kd for mAb10998 (antibody, V domains shown) VH: EVQLVESGGGLVHPGGSLRLSCAASGLTVSSNYMSWVRQAPGKGLEWVSVIYSGGSTYYADSVKGRFTISRHNSKNTLFLQMNSLRAEDTAVYYCARDRPITGTTLDVWGQGTTVTVSS VL: DIQMTQSPSSLFASVGDRVTITCRASQSISSYLNWYQQKPGKAPKLLIYAASSLQSGVPSRFSGSGSGTDFTLTISSLQPEDFAFYYCQQTYSTPPITFGQGTRLEIK is 1.58 nM
